Test system: SKBR-3
Assay Procedure: In vitro cytotoxicity assay (MTT)
Assay type: cell-based, human
Experimental Parameters: Homo sapiens, SK-BR-3, 144 h, 6 days incubation
Result Type: IC50 (nM)
Answer in nM, number only, no unit symbol.

Recorded IC50, per entry:
[
  {
    "Smiles Representation": "Brc1cnn2c(NCc3ccc(-c4ccccn4)cc3)nc(N[C@@H]3CCNC3)nc12",
    "Measurement Unit": "nM",
    "IC50": 0.17
  },
  {
    "Smiles Representation": "N[C@H]1CC[C@H](Nc2nc(NCc3ccc(-c4ccccn4)cc3)n3ncc(I)c3n2)CC1",
    "Measurement Unit": "nM",
    "IC50": 2.55
  },
  {
    "Smiles Representation": "CN(CCN)c1nc(NCc2ccc(-c3ccccn3)cc2)n2ncc(Br)c2n1",
    "Measurement Unit": "nM",
    "IC50": 1.69
  },
  {
    "Smiles Representation": "CNCCNc1nc(NCc2ccc(-c3ccccn3)cc2)n2ncc(Br)c2n1",
    "Measurement Unit": "nM",
    "IC50": 6.59
  }
]

Prompt: Need IC50, item `N[C@H]1CCCC[C@@H]1Nc1nc(NCc2ccc(-c3ccccn3)cc2)n2ncc(Br)c2n1`
Response: 0.42

# credit: patent EP4512427A1
